Test system: β-galactosidase in CMV-LacZ C2C12 myoblasts
experiment_description: CMV-LacZ secondary screen in C2C12 myoblasts (β-Gal stabilizing assay)
Format: cell-based, mouse
condition_info: 10 uM; CMV-LacZ C2C12 myoblasts
measured_parameter: CMV-LACZ in Myoblasts (β-galactosidase activity relative to DMSO)
Numbers only.

CCC(=O)c1ccc(OCC(O)CN2CC(C)OC(C)C2)cc1.O=C(O)C(=O)O (stereo not drawn) [MLS000053342-01] | 0.8785
CCCCN(CC)Cc1ccc(CNC(=S)Nc2ccccc2F)o1 [MLS000689562-01] | 1.0858
O=CN1CCN(C(=O)CC(c2ccccc2)c2cc(Br)ccc2O)CC1 (stereo not drawn) [MLS001000874-01] | 1.0295

List reported CMV-LACZ in Myoblasts (β-galactosidase activity relative to DMSO) for each of these compounds:
1. O=C(O)c1csc(-c2cccs2)n1 [MLS000760876-01]
2. Cc1ccc(Cn2nnc3c(=O)[nH]c(C4CCCN(C(=O)c5ccco5)C4)nc32)cc1 (stereo not drawn) [MLS001217212-01]
3. CCCC(=O)OCC(=O)c1[nH]c(C)c(C(C)=O)c1C [MLS001007892-01]
4. Nc1ncnc(NCc2ccccc2)c1[N+](=O)[O-] [MLS000698826-01]
5. CC(=O)Nc1ccc(NC(=O)C/C(C)=N/NC(=O)COc2cc(C)c(Br)cc2Br)cc1 [MLS000912562-01]

0.8973
1.0626
1.1495
0.9013
0.6246

###

Exercise: state measured CMV-LACZ in Myoblasts (β-galactosidase activity relative to DMSO) for each of the compounds provided.
Tested on: β-galactosidase in CMV-LacZ C2C12 myoblasts
experiment_description: CMV-LacZ secondary screen in C2C12 myoblasts (β-Gal stabilizing assay)
Type: cell-based, mouse
condition_info: 5 uM; CMV-LacZ C2C12 myoblasts
Numbers only.

Observe how each entry below is paired with its result.
O=C1Nc2ccccc2/C1=C/c1ccccc1F | 1.0084
Cc1cc(OCC(=O)NC(C)C)ccc1Cl | 1.2045
Cc1ccccc1NC(=O)c1ccc2c(O)c(S(=O)(=O)c3ccccc3)c(=O)[nH]c2c1 | 0.7759
CCOc1ccccc1NC(=O)COC(=O)CNS(=O)(=O)c1ccc(C)cc1 | 0.6593
CC(C)Oc1cccc(C(=O)Nc2ccc(CN3CCOCC3)cc2)c1 | 0.9848

Could you report CMV-LACZ in Myoblasts (β-galactosidase activity relative to DMSO) for every entry in the following list?
1. COC(=O)c1ccccc1NC(=O)CSc1nc(O)c(-c2ccccc2)c(=O)[nH]1
2. Cc1cccc(C)c1NCC(=O)N1CCN(Cc2ccccc2)CC1.Cl

0.9255
0.8976

Give CMV-LACZ in Myoblasts (β-galactosidase activity relative to DMSO) for each of the items listed below.
1. CCCC(=O)OCC(=O)c1[nH]c(C)c(C(C)=O)c1C
2. Cn1cc(CN2CCC(C(=O)Nc3cccc(-c4cscn4)c3)CC2)cn1

1. 1.0511
2. 1.0003

###

For each entry below, report its CMV-LACZ in Myotubes, value relative to DMSO value.
System: β-galactosidase in CMV-LacZ C2C12 myotubes
experiment_description: CMV-LacZ secondary screen in C2C12 myotubes (β-Gal stabilizing assay)
Format: cell-based, mouse
condition_info: 40 uM; SU9516 analogs, C2C12 CMV-LacZ, N=2
Give bare numbers.

CC(C)Oc1ccc(C(=O)/C=C2/C(=O)Nc3ccccc32)cc1 [MLS001214276-01] | 0.4976
NC(=O)COc1ccc(C(=O)/C=C2/C(=O)Nc3ccccc32)cc1 [MLS001214300-01] | 0.7118
O=C(O)COc1ccccc1/C=C1\C(=O)Nc2ccc(Br)cc21 [MLS001196427-01] | 0.9000
O=Nc1c(-c2c(O)[nH]c3ccccc23)[nH]c2ccccc12 [NCGC00015545-07] | 0.5470

We next turn to a different molecule, shown below.
Request the reported CMV-LACZ in Myotubes, value relative to DMSO associated with Cc1[nH]c(C=C2C(=O)Nc3ccccc32)c(C)c1CCC(=O)O [NCGC00241113-01]
0.9520

Just for reference, patent US9980943B2 is where these values come from.
